Ref: patent US10899764B2

# maps each entry to its IC50
# TARGET DESC: human TDO (Homo sapiens (Human), UniProt P48775)
# Sequence (P48775 whole entry): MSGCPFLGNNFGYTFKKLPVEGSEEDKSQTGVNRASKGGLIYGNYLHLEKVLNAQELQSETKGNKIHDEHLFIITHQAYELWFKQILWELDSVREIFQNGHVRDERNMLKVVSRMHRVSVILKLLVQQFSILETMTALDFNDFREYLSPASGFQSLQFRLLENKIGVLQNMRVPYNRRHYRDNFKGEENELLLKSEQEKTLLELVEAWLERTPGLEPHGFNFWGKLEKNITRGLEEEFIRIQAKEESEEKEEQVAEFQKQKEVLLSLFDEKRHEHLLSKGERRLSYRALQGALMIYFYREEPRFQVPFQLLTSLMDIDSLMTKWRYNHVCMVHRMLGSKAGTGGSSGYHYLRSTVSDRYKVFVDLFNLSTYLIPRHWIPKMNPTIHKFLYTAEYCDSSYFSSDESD
# MEASUREMENT PROTOCOL: Inhibition activity on human TDO (tryptophan 2,3-dioxygenase) (enzyme assay, absorbance at 480 nm)
# Format: biochemical
# CONDITION LABEL: read-out: IC50 for inhibiting the activity of human TDO
# Description: Assay for Determining the Inhibition activity of the Compounds of the Present Invention on Human TDO (tryptophan 2,3-dioxygenase) Human TDO activity was tested in vitro by the following method. […] For testing, 24 μL of enzyme (TDO) was diluted 100 times with 50 mM KPB to 2400 μL. […] After incubation for 2 minutes at room temperature, the absorbance at 480 nm was read on a Synergy HT Reader. […]
Structures can show the parent of a compound that is named as a salt.
Supply the numeric figure in µM, leaving out any unit text.

INSERT INTO measurements (compound, val) VALUES
  ('Fc1cccc2c1C(C1CCN(c3ccccc3)C1)n1cncc1-2 (stereo not drawn) [Example 25, trifluoroacetate]', 0.257),
  ('Fc1ccc2c(c1)C(C1CCN(c3ccccc3)CC1)n1cncc1-2 (stereo not drawn) [Example 2, trifluoroacetate]', 0.215);

Now, please, on to the next compound.
May I ask what IC50 has been recorded for Fc1cccc(N2CCC(C3c4c(F)cccc4-c4cncn43)CC2)c1 (stereo not drawn) [Example 3, trifluoroacetate] ?
0.371
